Sourced from paper PMC6696147

- TEST: in vitro
- TEST_CONTEXT: human
MEASUREMENT_LABEL: CC50

Enquiry: Tell me measured CC50 for NC(=O)c1ncn([C@@H]2O[C@H](CO)[C@@H](O)[C@H]2O)n1 [Ribavirin, reference compound] please.
Return: > 100 µM
